assay.notes: Inhibition of C57BL/6J mouse Alpha-glucosidase incubated for 10 mins by Lineweaver-Burk plot analysis
Assign Ki to each entry below.
Your answer is read as µM, so omit the unit and give the number.

Q. Please give the measured Ki for this compound: "OCCN1C[C@H](O)[C@@H](O)[C@H](O)[C@H]1CO"
A. 1.46

Q. Reported Ki, compound "CCCCCCCCCCCCCCCCCCNC(=O)CN(Cc1cn(CCCN2C[C@H](O)[C@@H](O)[C@H](O)[C@H]2CO)nn1)C(=O)CN(Cc1cn(CCCN2C[C@H](O)[C@@H](O)[C@H](O)[C@H]2CO)nn1)C(=O)CN(Cc1cn(CCCN2C[C@H](O)[C@@H](O)[C@H](O)[C@H]2CO)nn1)C(=O)CN(Cc1cn(CCCN2C[C@H](O)[C@@H](O)[C@H](O)[C@H]2CO)nn1)C(C)=O" : ____
A. 15.4

Q. Tell me the measured Ki of "OC[C@H]1NC[C@H](O)[C@@H](O)[C@@H]1O" , please.
A. 0.039

Q. Ki lookup needed for "CCCCCCCCCCCCCCCCCCNC(=O)CN(Cc1cn(CCCCCCN2C[C@H](O)[C@@H](O)[C@H](O)[C@H]2CO)nn1)C(=O)CN(Cc1cn(CCCCCCN2C[C@H](O)[C@@H](O)[C@H](O)[C@H]2CO)nn1)C(=O)CN(Cc1cn(CCCCCCN2C[C@H](O)[C@@H](O)[C@H](O)[C@H]2CO)nn1)C(=O)CN(Cc1cn(CCCCCCN2C[C@H](O)[C@@H](O)[C@H](O)[C@H]2CO)nn1)C(C)=O" , thanks.
A. 2.7
